- study-system: hCB2R (Homo sapiens)
- Sequence (P34972 whole entry): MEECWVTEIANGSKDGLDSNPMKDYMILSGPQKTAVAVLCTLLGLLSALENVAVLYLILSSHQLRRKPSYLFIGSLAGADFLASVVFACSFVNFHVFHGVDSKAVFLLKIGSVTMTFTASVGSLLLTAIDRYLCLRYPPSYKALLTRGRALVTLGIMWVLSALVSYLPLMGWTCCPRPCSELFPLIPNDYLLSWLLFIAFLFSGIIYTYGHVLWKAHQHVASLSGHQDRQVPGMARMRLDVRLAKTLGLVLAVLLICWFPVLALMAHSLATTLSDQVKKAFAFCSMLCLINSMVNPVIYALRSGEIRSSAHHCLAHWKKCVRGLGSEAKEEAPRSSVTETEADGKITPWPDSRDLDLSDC
- protocol-description: hCB2R cAMP assay
pEC50: −log10 of the molar value.

- smiles-str: "N#Cc1ccccc1CSc1nnc2c(n1)[nH]c1ccccc12"
  pEC50: 6.92
